# Test system: IGROV1 ovarian
# assayText: NCI tumour cell line growth inhibition, 48 h
Please respond with reported TGI for every item in the list.

compound | measuredTarget | experimentalValue
O=C1CCCCN1CCCCC#Cc1cccc(C#Cc2cccnc2)c1 | IGROV1 ovarian | 43.1 µM
O=C(O)c1ccc(C2C(=O)N[C@@H]3CCC[C@H]23)cc1 (stereo not given in full) | IGROV1 ovarian | > 100 µM
C[C@]12CC[C@@H]3c4cc(I)c(O)cc4CC[C@H]3[C@@H]1CC[C@@H]2O | IGROV1 ovarian | 20.5 µM
O=c1cc(-c2cc(O)c(O)c(-c3c(O)cc4oc(-c5ccc(O)c(O)c5)cc(=O)c4c3O)c2)oc2cc(O)cc(O)c12 | IGROV1 ovarian | > 25 µM
Cc1ccc(/C=C2\Cc3c(C)cc(C)cc3C2=O)c(C(=O)O)c1 | IGROV1 ovarian | > 100 µM
CN1/C(=C\C=C\C2=[N+](C)c3ccccc3C2(C)C)C(C)(C)c2ccccc21 | IGROV1 ovarian | 1.74 µM
CCON1CC(C(=O)OC)=C(O)C1=O | IGROV1 ovarian | > 100 µM
O=C(O)[C@@H](Cc1ccc2ccccc2c1)NC(=O)n1c2ccccc2c2ccccc21 | IGROV1 ovarian | 80.7 µM
COc1cc2c(cc1OC)C(C(=O)c1cccc(OC)c1OC)C(=O)N(C)CC2 (stereo not given) | IGROV1 ovarian | > 100 µM
COc1c(O)c2c(=O)cc(OC)c3c4c(OC)cc(=O)c5c(O)c(OC)c6c(c(c1C(C(C)O)C6C(C)O)c23)c54 (stereo not given) | IGROV1 ovarian | 2.3 µM

Batch request: TGI per item, same order as input.
1. COc1ccc(CC2COc3cc(O)cc(O)c3C2=O)cc1O (stereo not given)
2. CCOC(=O)NC(=O)c1cn(CCN2CCN(C(=O)CCCCCCCCCCC(=O)N3CCN(CCn4cc(C(=O)NC(=O)OCC)c(=O)[nH]c4=O)CC3)CC2)c(=O)[nH]c1=O
3. CC(C)(C)c1cc(C(=O)/C=C/c2ccc3c(c2)OCO3)cc(C(C)(C)C)c1O

Key:
1: > 100 µM; 2: > 100 µM; 3: > 100 µM

Take each entry in turn and give its TGI.
1. Cc1c2ccccc2cc2ccc3oc([N+](=O)[O-])cc3c12
2. Oc1[nH]c2ccccc2c1N=NC(=S)Nc1ccc(Cl)cc1

Key:
["> 100 µM", "> 100 µM"]
